Test system: HeLa Kyoto
Test: thermal stability score vs G1/S (z-score of summed log2 fold changes over temperatures); higher = more thermally stable than in G1/S
Conditions: cell cycle stage: early G1 (4.5 h after nocodazole release)

{"seq text": "MDPGDDWLVESLRLYQDFYAFDLSGATRVLEWIDDKGVFVAGYESLKKNEILHLKLPLRLSVKENKGLFPERDFKVRHGGFSDRSIFDLKHVPHTRLLVTSGLPGCYLQVWQVAEDSDVIKAVSTIAVHEKEESLWPRVAVFSTLAPGVLHGARLRSLQVVDLESRKTTYTSDVSDSEELSSLQVLDADTFAFCCASGRLGLVDTRQKWAPLENRSPGPGSGGERWCAEVGSWGQGPGPSIASLGSDGRLCLLDPRDLCHPVSSVQCPVSVPSPDPELLRVTWAPGLKNCLAISGFDGTVQVYDATSWDGTRSQDGTRSQVEPLFTHRGHIFLDGNGMDPAPLVTTHTWHPCRPRTLLSATNDASLHVWDWVDLCAPR [WDR73]", "thermal stability score": 0.072}

----------
Tested on: HeLa Kyoto
Experiment: thermal stability score vs G1/S (z-score of summed log2 fold changes over temperatures); higher = more thermally stable than in G1/S
Details: cell cycle stage: mitosis

{"seq text": "MAMQAAKRANIRLPPEVNRILYIRNLPYKITAEEMYDIFGKYGPIRQIRVGNTPETRGTAYVVYEDIFDAKNACDHLSGFNVCNRYLVVLYYNANRAFQKMDTKKKEEQLKLLKEKYGINTDPPK [SF3B6]", "thermal stability score": -2.34}
{"seq text": "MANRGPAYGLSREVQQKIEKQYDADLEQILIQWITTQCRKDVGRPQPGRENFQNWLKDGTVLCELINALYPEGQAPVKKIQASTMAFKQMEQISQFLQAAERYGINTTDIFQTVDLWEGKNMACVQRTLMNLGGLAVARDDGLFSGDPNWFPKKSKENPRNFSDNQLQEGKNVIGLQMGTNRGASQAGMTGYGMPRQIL [TAGLN2]", "thermal stability score": -1.77}
{"seq text": "MAGTGLVAGEVVVDALPYFDQGYEAPGVREAAAALVEEETRRYRPTKNYLSYLTAPDYSAFETDIMRNEFERLAARQPIELLSMKRYELPAPSSGQKNDITAWQECVNNSMAQLEHQAVRIENLELMSQHGCNAWKVYNENLVHMIEHAQKELQKLRKHIQDLNWQRKNMQLTAGSKLREMESNWVSLVSKNYEIERTIVQLENEIYQIKQQHGEANKENIRQDF [BCAS2]", "thermal stability score": -0.925}
{"seq text": "MLSALARPASAALRRSFSTSAQNNAKVAVLGASGGIGQPLSLLLKNSPLVSRLTLYDIAHTPGVAADLSHIETKAAVKGYLGPEQLPDCLKGCDVVVIPAGVPRKPGMTRDDLFNTNATIVATLTAACAQHCPEAMICVIANPVNSTIPITAEVFKKHGVYNPNKIFGVTTLDIVRANTFVAELKGLDPARVNVPVIGGHAGKTIIPLISQCTPKVDFPQDQLTALTGRIQEAGTEVVKAKAGAGSATLSMAYAGARFVFSLVDAMNGKEGVVECSFVKSQETECTYFSTPLLLGKKGIEKNLGIGKVSSFEEKMISDAIPELKASIKKGEDFVKTLK [MDH2]", "thermal stability score": -1.62}

----------
Test system: HeLa Kyoto
Experiment: thermal stability score vs G1/S (z-score of summed log2 fold changes over temperatures); higher = more thermally stable than in G1/S
Details: cell cycle stage: mitosis
Let's look at some sequences and their measured thermal stability score.

{"seq text": "MVSVINTVDTSHEDMIHDAQMDYYGTRLATCSSDRSVKIFDVRNGGQILIADLRGHEGPVWQVAWAHPMYGNILASCSYDRKVIIWREENGTWEKSHEHAGHDSSVNSVCWAPHDYGLILACGSSDGAISLLTYTGEGQWEVKKINNAHTIGCNAVSWAPAVVPGSLIDHPSGQKPNYIKRFASGGCDNLIKLWKEEEDGQWKEEQKLEAHSDWVRDVAWAPSIGLPTSTIASCSQDGRVFIWTCDDASSNTWSPKLLHKFNDVVWHVSWSITANILAVSGGDNKVTLWKESVDGQWVCISDVNKGQGSVSASVTEGQQNEQ [SEC13]", "target under test": "HeLa Kyoto", "thermal stability score": -0.265}
{"seq text": "MRRMWATQGLAVALALSVLPGSRALRPGDCEVCISYLGRFYQDLKDRDVTFSPATIENELIKFCREARGKENRLCYYIGATDDAATKIINEVSKPLAHHIPVEKICEKLKKKDSQICELKYDKQIDLSTVDLKKLRVKELKKILDDWGETCKGCAEKSDYIRKINELMPKYAPKAASARTDL [MANF]", "target under test": "HeLa Kyoto", "thermal stability score": -3.76}
{"seq text": "MSRLRALLGLGLLVAGSRVPRIKSQTIACRSGPTWWGPQRLNSGGRWDSEVMASTVVKYLSQEEAQAVDQELFNEYQFSVDQLMELAGLSCATAIAKAYPPTSMSRSPPTVLVICGPGNNGGDGLVCARHLKLFGYEPTIYYPKRPNKPLFTALVTQCQKMDIPFLGEMPAEPMTIDELYELVVDAIFGFSFKGDVREPFHSILSVLKGLTVPIASIDIPSGWDVEKGNAGGIQPDLLISLTAPKKSATQFTGRYHYLGGRFVPPALEKKYQLNLPPYPDTECVYRLQ [APOA1BP]", "target under test": "HeLa Kyoto", "thermal stability score": -3.77}
{"seq text": "MSAFSEAALEKKLSELSNSQQSVQTLSLWLIHHRKHSRPIVTVWERELRKAKPNRKLTFLYLANDVIQNSKRKGPEFTKDFAPVIVEAFKHVSSETDESCKKHLGRVLSIWEERSVYENDVLEQLKQALYGDKKPRKRTYEQIKVDENENCSSLGSPSEPPQTLDLVRALQDLENAASGDAAVHQRIASLPVEVQEVSLLDKITDKESGERLSKMVEDACMLLADYNGRLAAEIDDRKQLTRMLADFLRCQKEALAEKEHKLEEYKRKLARVSLVRKELRSRIQSLPDLSRLPNVTGSHMHLPFAGDIYSED [RPRD1A]", "target under test": "HeLa Kyoto", "thermal stability score": 1.64}
{"seq text": "MFCEKAMELIRELHRAPEGQLPAFNEDGLRQVLEEMKALYEQNQSDVNEAKSGGRSDLIPTIKFRHCSLLRNRRCTVAYLYDRLLRIRALRWEYGSVLPNALRFHMAAEEMEWFNNYKRSLATYMRSLGGDEGLDITQDMKPPKSLYIEVRCLKDYGEFEVDDGTSVLLKKNSQHFLPRWKCEQLIRQGVLEHILS [GINS1]", "target under test": "HeLa Kyoto", "thermal stability score": -0.424}
{"seq text": "MFRRPVLQVLRQFVRHESETTTSLVLERSLNRVHLLGRVGQDPVLRQVEGKNPVTIFSLATNEMWRSGDSEVYQLGDVSQKTTWHRISVFRPGLRDVAYQYVKKGSRIYLEGKIDYGEYMDKNNVRRQATTIIADNIIFLSDQTKEKE [SSBP1]", "target under test": "HeLa Kyoto", "thermal stability score": -1.51}

----------
Test system: HeLa Kyoto
Assay: solubility in G1/S (NP-40 vs SDS abundance) (log2 ratio); higher = more soluble
Conditions: cell cycle stage: G1/S
Classification field: met = solubility in G1/S (log2) at or over 0.04; not met = solubility in G1/S (log2) under 0.04.

{"substance": "MAFRQALQLAACGLAGGSAAVLFSAVAVGKPRAGGDAEPRPAEPPAWAGGARPGPGVWDPNWDRREPLSLINVRKRNVESGEEELASKLDHYKAKATRHIFLIRHSQYHVDGSLEKDRTLTPLGREQAELTGLRLASLGLKFNKIVHSSMTRAIETTDIISRHLPGVCKVSTDLLREGAPIEPDPPVSHWKPEAVQYYEDGARIEAAFRNYIHRADARQEEDSYEIFICHANVIRYIVCRALQFPPEGWLRLSLNNGSITHLVIRPNGRVALRTLGDTGFMPPDKITRS [PGAM5]", "answer label": "not met"}
{"substance": "MFRRPVLQVLRQFVRHESETTTSLVLERSLNRVHLLGRVGQDPVLRQVEGKNPVTIFSLATNEMWRSGDSEVYQLGDVSQKTTWHRISVFRPGLRDVAYQYVKKGSRIYLEGKIDYGEYMDKNNVRRQATTIIADNIIFLSDQTKEKE [SSBP1]", "answer label": "met"}
{"substance": "MAEQATKSVLFVCLGNICRSPIAEAVFRKLVTDQNISENWRVDSAATSGYEIGNPPDYRGQSCMKRHGIPMSHVARQITKEDFATFDYILCMDESNLRDLNRKSNQVKTCKAKIELLGSYDPQKQLIIEDPYYGNDSDFETVYQQCVRCCRAFLEKAH [ACP1]", "answer label": "met"}
{"substance": "CTDSPL2", "answer label": "not met"}
{"substance": "MDEDGLPLMGSGIDLTKVPAIQQKRTVAFLNQFVVHTVQFLNRFSTVCEEKLADLSLRIQQIETTLNILDAKLSSIPGLDDVTVEVSPLNVTSVTNGAHPEATSEQPQQNSTQDSGLQESEVSAENILTVAKDPRYARYLKMVQVGVPVMAIRNKMISEGLDPDLLERPDAPVPDGESEKTVEESSDSESSFSD [CCDC53]", "answer label": "not met"}
{"substance": "MRPGAPGPLWPLPWGALAWAVGFVSSMGSGNPAPGGVCWLQQGQEATCSLVLQTDVTRAECCASGNIDTAWSNLTHPGNKINLLGFLGLVHCLPCKDSCDGVECGPGKACRMLGGRPRCECAPDCSGLPARLQVCGSDGATYRDECELRAARCRGHPDLSVMYRGRCRKSCEHVVCPRPQSCVVDQTGSAHCVVCRAAPCPVPSSPGQELCGNNNVTYISSCHMRQATCFLGRSIGVRHAGSCAGTPEEPPGGESAEEEENFV [FSTL3]", "answer label": "not met"}
{"substance": "MFNRAVSRLSRKRPPSDIHDSDGSSSSSHQSLKSTAKWAASLENLLEDPEGVKRFREFLKKEFSEENVLFWLACEDFKKMQDKTQMQEKAKEIYMTFLSSKASSQVNVEGQSRLNEKILEEPHPLMFQKLQDQIFNLMKYDSYSRFLKSDLFLKHKRTEEEEEDLPDAQTAAKRASRIYNT [RGS10]", "answer label": "met"}
{"substance": "MAVESRVTQEEIKKEPEKPIDREKTCPLLLRVFTTNNGRHHRMDEFSRGNVPSSELQIYTWMDATLKELTSLVKEVYPEARKKGTHFNFAIVFTDVKRPGYRVKEIGSTMSGRKGTDDSMTLQSQKFQIGDYLDIAITPPNRAPPPSGRMRPY [SAP18]", "answer label": "not met"}
{"substance": "MEAVLTEELDEEEQLLRRHRKEKKELQAKIQGMKNAVPKNDKKRRKQLTEDVAKLEKEMEQKHREELEQLKLTTKENKIDSVAVNISNLVLENQPPRISKAQKRREKKAALEKEREERIAEAEIENLTGARHMESEKLAQILAARQLEIKQIPSDGHCMYKAIEDQLKEKDCALTVVALRSQTAEYMQSHVEDFLPFLTNPNTGDMYTPEEFQKYCEDIVNTAAWGGQLELRALSHILQTPIEIIQADSPPIIVGEEYSKKPLILVYMRHAYGLGEHYNSVTRLVNIVTENCS [OTUD6B]", "answer label": "met"}
{"substance": "MTKKKRENLGVALEIDGLEEKLSQCRRDLEAVNSRLHSRELSPEARRSLEKEKNSLMNKASNYEKELKFLRQENRKNMLLSVAIFILLTLVYAYWTM [CCDC167]", "answer label": "met"}
{"substance": "MAAMASLGALALLLLSSLSRCSAEACLEPQITPSYYTTSDAVISTETVFIVEISLTCKNRVQNMALYADVGGKQFPVTRGQDVGRYQVSWSLDHKSAHAGTYEVRFFDEESYSLLRKAQRNNEDISIIPPLFTVSVDHRGTWNGPWVSTEVLAAAIGLVIYYLAFSAKSHIQA [SSR4]", "answer label": "met"}
{"substance": "MARSVRVLVDMDGVLADFEAGLLRGFRRRFPEEPHVPLEQRRGFLAREQYRALRPDLADKVASVYEAPGFFLDLEPIPGALDAVREMNDLPDTQVFICTSPLLKYHHCVGEKYRWVEQHLGPQFVERIILTRDKTVVLGDLLIDDKDTVRGQEETPSWEHILFTCCHNRHLVLPPTRRRLLSWSDNWREILDSKRGAAQRE [NT5C]", "answer label": "met"}
{"substance": "MVYISNGQVLDSRSQSPWRLSLITDFFWGIAEFVVLFFKTLLQQDVKKRRSYGNSSDSRYDDGRGPPGNPPRRMGRINHLRGPSPPPMAGGUGR [SELK]", "answer label": "not met"}
{"substance": "MENLMTSSTLPPLFADEDGSKESNDLATTGLNHPEVPYSSGATSSTNNPEFVEDLSQGQLLQSESSNAAEGNEQRHEDEQRSKRGGWSKGRKRKKPLRDSNAPKSPLTGYVRFMNERREQLRAKRPEVPFPEITRMLGNEWSKLPPEEKQRYLDEADRDKERYMKELEQYQKTEAYKVFSRKTQDRQKGKSHRQDAARQATHDHEKETEVKERSVFDIPIFTEEFLNHSKAREAELRQLRKSNMEFEERNAALQKHVESMRTAVEKLEVDVIQERSRNTVLQQHLETLRQVLTSSFASMPLPGSGETPTVDTIDSYMNRLHSIILANPQDNENFIATVREVVNRLDR [HMG20A]", "answer label": "not met"}

Source: the supplement of paper PMC5998384
